- Test system: ducksalad (Heteranthera limosa)
- protocol: Test B flooded paddy test
- Format: in vivo
- protocol-conditions: Heteranthera limosa, 250 g ai/ha, Flood; 0 to 100 scale where 0 is no effect and 100 is complete control; read-out: Ducksalad plant response rating
assay-metric: pest or weed control at 250 g/ha (%)
Respond with the bare value in %.

In [3]: df
Out[3]:
                              smiles_record  meas_value
0  CCc1cc(CC)cc([C@H]2CNC(=O)[C@@H]2C(=O)Nc2cccc(F)c2F)c1          30

Request: // lookup pest or weed control at 250 g/ha for CCc1cc([C@H]2CNC(=O)[C@@H]2C(=O)Nc2cccc(F)c2F)cs1
Response: 100

Request: // lookup pest or weed control at 250 g/ha for Cc1c(F)ccc([C@H]2CNC(=O)[C@@H]2C(=O)Nc2ccccc2F)c1F
Response: 70

Request: // lookup pest or weed control at 250 g/ha for Cc1nc([C@H]2CN(C)C(=O)[C@@H]2C(=O)Nc2cccc(F)c2F)cs1
Response: 50

====

- Tested on: redroot pigweed (Amaranthus retroflexus)
- protocol: Test G Pre-Emergence Protocol
- Type: in vivo
- protocol-conditions: Amaranthus retroflexus, pre-emergence, 312 h, 62.5 g ai/ha, evaluated after 13 days, 100=total damage to plant, 0=no damage to plant, read-out: plant damage rating, Pigweed, Redroot
assay-metric: pest or weed control at 62.5 g/ha (%)
Respond with the bare value in %.

These solved cases illustrate the format of a correct answer.
>>> df
                                   molecule  meas_value
0  Cc1ccc(NC(=O)[C@@H]2C(=O)N(C)C[C@H]2c2ccc(C(F)(F)F)cc2)nn1 (racemic)           0
1  CN1C[C@@H](c2ccc(Cl)nc2)[C@H](C(=O)Nc2cccc(F)c2F)C1=O (racemic)           0
2  Cc1cc(NC(=O)[C@@H]2C(=O)N(C)C[C@H]2c2ccc(C(F)(F)F)cc2)ccn1 (racemic)           0
3  CN1C[C@@H](c2ccc(C(F)(F)F)cc2)[C@H](C(=O)Nc2ncc(Br)cn2)C1=O (racemic)           0
4  CSc1nc(N)cc(NC(=O)[C@@H]2C(=O)N(C)C[C@H]2c2ccc(C(F)(F)F)cc2)n1 (racemic)           0
5  CN1C[C@@H](c2ccc(C(F)(F)F)cc2)[C@H](C(=O)Nc2ccc(F)c(Cl)c2F)C1=O (racemic)          30

Let us examine a further case.
Request: // lookup pest or weed control at 62.5 g/ha for Cc1c(C#N)cccc1NC(=O)[C@H]1C(=O)N(C)C[C@@H]1c1ccc(C(F)(F)F)cc1 (racemic)
Response: 40

====

- Tested on: Kochia (Kochia scoparia)
- protocol: Test A postemergence
- Assay type: in vivo
- protocol-conditions: Postemergence, 500 g ai/ha; 0 to 100 scale where 0 is no effect and 100 is complete control
assay-metric: Plant response rating, Kochia
Answer with a number only.

These solved cases illustrate the format of a correct answer.
>>> df
                                   compound                    system  meas_value
0  CN1CC(c2cccc(C(F)(F)F)c2)C(C(=O)Nc2ccc(F)cc2F)C1=O (stereo not drawn)  Kochia (Kochia scoparia)          60
1  O=C1NCC(c2ccc(Oc3ccccc3)cc2)C1C(=O)Nc1ccccc1F (racemic)  Kochia (Kochia scoparia)           0
2  CN1CC(c2ccc(Br)cc2)C(C(=O)Nc2ccc(F)cc2F)C1=O (stereo not drawn)  Kochia (Kochia scoparia)          80
3  O=C(Nc1cccc(F)c1F)C1C(=O)N(CC=CBr)CC1c1cccc(C(F)(F)F)c1 (stereo not drawn)  Kochia (Kochia scoparia)           0
4  O=C1NCC(c2cccc(C(F)(F)F)c2F)C1C(=O)Nc1ccccc1F (stereo not drawn)  Kochia (Kochia scoparia)          30
5  Cc1ccc(C2CNC(=O)C2C(=O)Nc2ccc(F)cc2F)c(F)c1 (racemic)  Kochia (Kochia scoparia)          20
6  COc1c(F)ccc(NC(=O)C2C(=O)NCC2c2cc(F)cc(F)c2)c1F (racemic)  Kochia (Kochia scoparia)          30
7  C=C(C)CN1CC(c2cccc(C(F)(F)F)c2)C(C(=O)Nc2ccccc2F)C1=O (stereo not drawn)  Kochia (Kochia scoparia)           0

Request: // map O=C(Nc1ccccc1F)C1C(=O)N(CC=CBr)CC1c1cccc(C(F)(F)F)c1 (stereo not drawn) to recorded Plant response rating, Kochia (system: Kochia (Kochia scoparia))
Response: 0

Request: // map CN1CC(c2cccc(C(F)(F)F)c2)C(C(=O)Nc2ccccc2)C1=O (stereo not drawn) to recorded Plant response rating, Kochia (system: Kochia (Kochia scoparia))
Response: 40

Request: // map C=C(Cl)CN1CC(c2cccc(C(F)(F)F)c2)C(C(=O)Nc2ccccc2F)C1=O (stereo not drawn) to recorded Plant response rating, Kochia (system: Kochia (Kochia scoparia))
Response: 0

Request: // map O=C1NCC(c2cc(C(F)(F)F)ccc2F)C1C(=O)Nc1ccccc1F (stereo not drawn) to recorded Plant response rating, Kochia (system: Kochia (Kochia scoparia))
Response: 0

Request: // map O=C1NCC(c2c(F)cccc2F)C1C(=O)Nc1cccc(F)c1F (racemic) to recorded Plant response rating, Kochia (system: Kochia (Kochia scoparia))
Response: 0

Request: // map CC(C)Oc1cccc(C2CNC(=O)C2C(=O)Nc2cccc(F)c2F)c1 (stereo not drawn) to recorded Plant response rating, Kochia (system: Kochia (Kochia scoparia))
Response: 50

Request: // map CN1CC(c2ccc(C(F)(F)F)cc2F)C(C(=O)Nc2ccccc2F)C1=O (stereo not drawn) to recorded Plant response rating, Kochia (system: Kochia (Kochia scoparia))
Response: 60
